Biological target: UniProt P11597
Sequence (P11597 whole entry): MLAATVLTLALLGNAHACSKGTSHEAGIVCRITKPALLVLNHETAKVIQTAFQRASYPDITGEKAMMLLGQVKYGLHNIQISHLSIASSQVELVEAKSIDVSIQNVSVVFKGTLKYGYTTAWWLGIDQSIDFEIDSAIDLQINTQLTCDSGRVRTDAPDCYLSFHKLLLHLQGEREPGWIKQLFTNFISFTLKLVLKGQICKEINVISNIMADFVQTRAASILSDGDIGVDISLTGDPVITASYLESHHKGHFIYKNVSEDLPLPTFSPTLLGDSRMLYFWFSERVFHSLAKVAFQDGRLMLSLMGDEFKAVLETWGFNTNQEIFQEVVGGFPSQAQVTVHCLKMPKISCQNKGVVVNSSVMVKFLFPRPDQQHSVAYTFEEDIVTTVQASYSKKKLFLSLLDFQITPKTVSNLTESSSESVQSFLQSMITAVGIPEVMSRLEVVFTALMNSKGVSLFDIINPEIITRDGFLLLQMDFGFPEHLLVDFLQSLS
READOUT NAME: IC50 (µM)

// below: answered compounds
COC(Cc1ccc(-c2nc3cc(C#N)cc(C)c3o2)cc1)CN1CCN(c2ccc(C(F)(F)F)cc2)CC1 (stereo unspecified) ... 8.94
Cc1cc(C#N)cc2nc(-c3ccc(OCCN4CCN(c5ccc(C(F)(F)F)cc5)CC4)cc3)oc12 ... 4.55

(a) Cc1cc(C#N)cc2nc(-c3ccc(C(=O)N4CCN(c5ccc(C(F)(F)F)cc5)CC4)cc3)oc12
(b) Cc1cc(C#N)cc2nc(-c3ccc(N4CCC(N5CCN(c6ccc(C(F)(F)F)cc6)CC5)C4=O)cc3)oc12 (stereo unspecified)
(c) COc1cc(F)c(C(C)C)cc1-c1ccc(N2CCC(CNC(=O)c3ccc(-c4nc5cc(C#N)cc(C(C)C)c5o4)cc3)CC2)nc1
(d) Cc1cc(C#N)cc2nc(-c3ccc(C(=O)NCC4CCN(c5ccc(C(F)(F)F)cc5)CC4)cc3)oc12
Please rank these compounds by IC50 in descending order. List the labels in the requested order. a, b, d, c
(a: 4.03 µM, b: 2.74 µM, d: 0.3 µM, c: 0.024 µM)

====

pIC50: −log10 of the molar value.
What follows is a collection of pIC50 values obtained with Cholesteryl ester transfer protein (Homo sapiens, UniProt P11597).
READOUT NAME: pIC50

(A) COC(=O)c1ccc(N2CCC(CNC(=O)c3ccc(-c4nc5cc(C#N)cc(C(C)C)c5o4)cc3)CC2)nc1
(B) CC(C)c1cc(C#N)cc2nc(-c3ccc(C(=O)NCC4CCN(c5ccc(-c6ccccc6)cn5)CC4)cc3)oc12
(C) Cc1cc(C#N)cc2nc(-c3ccc(C(O)CCN4CCN(c5ccc(C(F)(F)F)cc5)CC4)cc3)oc12 (centres undefined)
(D) C=C(C)c1ccc(N2CCC(CNC(=O)c3ccc(-c4nc5cc(C#N)cc(C(C)C)c5o4)cc3)CC2)nc1
Sort ascending by pIC50: all records listed above. List the labels in the requested order. C, D, A, B

====

Biological target: Cholesteryl ester transfer protein (Homo sapiens, UniProt P11597)
Sequence (P11597 whole entry): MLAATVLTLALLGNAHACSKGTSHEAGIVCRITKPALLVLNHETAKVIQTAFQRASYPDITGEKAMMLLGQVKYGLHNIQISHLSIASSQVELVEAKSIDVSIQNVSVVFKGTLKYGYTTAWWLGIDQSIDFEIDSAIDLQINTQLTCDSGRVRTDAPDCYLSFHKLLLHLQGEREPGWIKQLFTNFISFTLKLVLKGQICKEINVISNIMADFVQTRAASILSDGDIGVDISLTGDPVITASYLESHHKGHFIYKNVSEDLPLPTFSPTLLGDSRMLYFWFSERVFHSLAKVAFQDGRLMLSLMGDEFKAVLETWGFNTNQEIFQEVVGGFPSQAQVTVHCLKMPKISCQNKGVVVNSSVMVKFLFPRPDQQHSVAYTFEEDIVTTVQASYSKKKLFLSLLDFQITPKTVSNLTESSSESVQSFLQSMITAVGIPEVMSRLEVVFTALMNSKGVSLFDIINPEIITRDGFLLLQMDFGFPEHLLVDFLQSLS
pIC50: −log10 of the molar value.
READOUT NAME: pIC50

CC(C)c1cc(C#N)cc2nc(-c3ccc(C(=O)NCC4CCN(c5cc(C(F)(F)F)ccn5)CC4)cc3)oc12 ... 7.21
COc1cccc(N2CCC(CNC(=O)c3ccc(-c4nc5cc(C#N)cc(C(C)C)c5o4)cc3)CC2)n1 ... 6.96
Cc1cc(C#N)cc2nc(-c3ccc(NC(=O)CN4CCN(c5ccc(C(F)(F)F)cn5)CC4)cc3)oc12 ... 7.82
Cc1cc(C#N)cc2nc(-c3ccc(CC(O)CN4CCN(c5ccc(C(F)(F)F)cc5)CC4)cc3)oc12 (stereo unspecified) ... 6.06
CC(C)c1ccccc1-c1ccc(N2CCC(CNC(=O)c3ccc(-c4nc5cc(C#N)cc(C(C)C)c5o4)cc3)CC2)nc1 ... 7.72

(I) COc1cccc(Cl)c1-c1ccc(N2CCC(CNC(=O)c3ccc(-c4nc5cc(C#N)cc(C(C)C)c5o4)cc3)CC2)nc1
(II) COC(=O)c1cccc(N2CCC(CNC(=O)c3ccc(-c4nc5cc(C#N)cc(C(C)C)c5o4)cc3)CC2)n1
Higher pIC50 between I and II ? Identify your selection by its label. I

(a) CC(C)COc1ccccc1-c1ccc(N2CCC(CNC(=O)c3ccc(-c4nc5cc(C#N)cc(C(C)C)c5o4)cc3)CC2)nc1
(b) CC(C)c1cc(C#N)cc2nc(-c3ccc(C(=O)NCC4CCN(c5ccc(Br)cn5)CC4)cc3)oc12
(c) Cc1cc(C#N)cc2nc(-c3ccc(C(=O)CCN4CCN(c5ccc(C(F)(F)F)cc5)CC4)cc3)oc12
Please rank these compounds by pIC50 in descending order. List the labels in the requested order. a, b, c

(I) Cc1cccc(-c2ccc(N3CCC(CNC(=O)c4ccc(-c5nc6cc(C#N)cc(C(C)C)c6o5)cc4)CC3)nc2)c1
(II) Cc1cc(C#N)cc2nc(-c3ccc(CCCN4CCN(c5ccc(C(F)(F)F)cc5)CC4)cc3)oc12
(III) N#Cc1cc(C2CC2)c2oc(-c3ccc(C(=O)NCC4CCN(c5ccc(C(F)(F)F)cn5)CC4)cc3)nc2c1
Please rank these compounds by pIC50 in descending order. List the labels in the requested order. I, III, II
(I: 7.41, III: 6.61, II: 6.01)

====

Target chain: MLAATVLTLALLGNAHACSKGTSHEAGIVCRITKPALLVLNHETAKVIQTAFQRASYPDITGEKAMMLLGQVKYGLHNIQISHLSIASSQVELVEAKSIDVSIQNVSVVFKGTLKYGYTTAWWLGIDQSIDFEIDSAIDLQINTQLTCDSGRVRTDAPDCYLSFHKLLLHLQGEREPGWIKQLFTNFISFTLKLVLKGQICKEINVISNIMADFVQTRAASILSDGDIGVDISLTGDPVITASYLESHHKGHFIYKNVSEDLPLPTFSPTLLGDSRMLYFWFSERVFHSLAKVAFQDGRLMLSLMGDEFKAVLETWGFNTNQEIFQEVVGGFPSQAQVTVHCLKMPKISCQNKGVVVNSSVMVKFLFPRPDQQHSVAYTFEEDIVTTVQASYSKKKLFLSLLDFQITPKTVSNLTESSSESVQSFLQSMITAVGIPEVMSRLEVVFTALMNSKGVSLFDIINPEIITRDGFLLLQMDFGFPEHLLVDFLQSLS
READOUT NAME: IC50 (nM)

CC(C)c1cc(C#N)cc2nc(-c3ccc(C(=O)NCC4CCN(c5cccc(C(F)(F)F)n5)CC4)cc3)oc12 ... 37
CC(C)Oc1ccc(C(F)(F)F)cc1-c1ccc(N2CCC(CNC(=O)c3ccc(-c4nc5cc(C#N)cc(C(C)C)c5o4)cc3)CC2)nc1 ... 28
